test system: SNB-75; assay: Cytotoxicity, standard NCI assay with sulforhodamine B, 96 h; format: cell-based, human; conditions: SNB-75; IC50, 96 h at 37° C.; Table 3; read-out: Cytotoxicity (nM, ± SD) SNB-75
Exercise: state measured IC50 for each of the compounds provided.
Note: unit nM is implicit; provide only the numeric part.

Which measured IC50 value corresponds to C/C(=C\c1csc(C)n1)[C@@H]1C[C@@H]2O[C@]2(C)CCC[C@H](C)[C@H](O)[C@@H](C)C(=O)C(C)(C)[C@@H](O)CC(=O)O1 [EpoB, epothilone B, reference compound] ? 6.5

Which measured IC50 value corresponds to `C/C(=C\c1csc(C)n1)[C@@H]1C[C@@H]2O[C@@H]2CCC[C@H](C)[C@H](O)[C@@H](C)C(=O)C(C)(C)[C@@H](O)CC(=O)O1` ? 14

----------
tested on: MCF-7; experiment: Cytotoxicity, standard NCI assay with sulforhodamine B, 96 h; conditions: Homo sapiens, MCF7, 96 h, read-out: cytotoxicity (GI50, nM ± SD) MCF-7
ASSAY_READOUT: GI50 (nM)
Note: unit nM is implicit; provide only the numeric part.

// lookup GI50 | system=MCF-7 | key= `C/C(=C\c1ccn(-c2ccc(N)cc2)n1)[C@@H]1C[C@@H]2O[C@]2(C)CCC[C@H](C)[C@H](O)[C@@H](C)C(=O)C(C)(C)[C@@H](O)CC(=O)O1` 10

// lookup GI50 | system=MCF-7 | key= `CSc1cc(/C=C(\C)[C@@H]2C[C@@H]3O[C@]3(C)CCC[C@H](C)[C@H](O)[C@@H](C)C(=O)C(C)(C)[C@@H](O)CC(=O)O2)n(CCNC(=O)OC(C)(C)C)n1` 1600

// lookup GI50 | system=MCF-7 | key= `C/C(=C\c1ccn(-c2ccc(N)c(F)c2)n1)[C@@H]1C[C@@H]2O[C@]2(C)CCC[C@H](C)[C@H](O)[C@@H](C)C(=O)C(C)(C)[C@@H](O)CC(=O)O1` 2.5

// lookup GI50 | system=MCF-7 | key= CC(=O)O[C@H]1C(=O)[C@@]2(C)[C@H]([C@H](OC(=O)c3ccccc3)[C@]3(O)C[C@H](OC(=O)[C@H](O)[C@@H](NC(=O)c4ccccc4)c4ccccc4)C(C)=C1C3(C)C)[C@]1(OC(C)=O)CO[C@@H]1C[C@@H]2O [PTX, paclitaxel, reference compound] 8.5

// lookup GI50 | system=MCF-7 | key= `C/C(=C\c1ccn(-c2ccccc2N)n1)[C@@H]1C[C@@H]2O[C@]2(C)CCC[C@H](C)[C@H](O)[C@@H](C)C(=O)C(C)(C)[C@@H](O)CC(=O)O1` 5.5

// lookup GI50 | system=MCF-7 | key= `C/C(=C\c1ccn(-c2ccc(N)cc2C(F)(F)F)n1)[C@@H]1C[C@@H]2O[C@]2(C)CCC[C@H](C)[C@H](O)[C@@H](C)C(=O)C(C)(C)[C@@H](O)CC(=O)O1` 9

// lookup GI50 | system=MCF-7 | key= `C/C(=C\c1cc(C(F)(F)F)nn1CCNC(=O)OCC[Si](C)(C)C)[C@@H]1C[C@@H]2O[C@]2(C)CCC[C@H](C)[C@H](O)[C@@H](C)C(=O)C(C)(C)[C@@H](O)CC(=O)O1` 1800

----------
test system: MCF-7; test: Cytotoxicity, standard NCI assay with sulforhodamine B, 96 h; conditions: Homo sapiens, MCF7, 96 h, read-out: Cytotoxicity (nM, ± SD) MCF-7
Exercise: state measured IC50 for each of the compounds provided.
Note: unit nM is implicit; provide only the numeric part.

Which measured IC50 value corresponds to `C/C(=C\c1csc(C)n1)[C@@H]1C[C@@H]2N[C@]2(C)CCC[C@H](C)[C@H](O)[C@@H](C)C(=O)C(C)(C)[C@@H](O)CC(=O)O1` ? 2

Which measured IC50 value corresponds to CSc1nc(/C=C(\C)[C@@H]2C[C@@H]3N(CCN)[C@]3(C)CCC[C@H](C)[C@H](O)[C@@H](C)C(=O)C(C)(C)[C@@H](O)CC(=O)O2)cs1 (stereo partly drawn) ? 14

Which measured IC50 value corresponds to C/C(=C\c1nc2ccccc2s1)[C@@H]1C[C@@H]2N(CCO)[C@]2(C)CCC[C@H](C)[C@H](O)[C@@H](C)C(=O)C(C)(C)[C@@H](O)CC(=O)O1 (stereo partly drawn) ? 11

----------
test system: HT29; assay: NCI-60 human cancer cell line panel, five dose screen; type: cell-based; conditions: HT-29, NCI-60 five dose screen
Exercise: state measured GI50 for each of the molecules provided.
Note: unit nM is implicit; provide only the numeric part.

Which measured GI50 value corresponds to `C/C(=C\c1ccn(-c2ccccc2N)n1)[C@@H]1C[C@@H]2O[C@]2(C)CCC[C@H](C)[C@H](O)[C@@H](C)C(=O)C(C)(C)[C@@H](O)CC(=O)O1` ? 18.8

Which measured GI50 value corresponds to `C/C(=C\c1ccn(-c2ccc(N)cc2F)n1)[C@@H]1C[C@@H]2O[C@]2(C)CCC[C@H](C)[C@H](O)[C@@H](C)C(=O)C(C)(C)[C@@H](O)CC(=O)O1` ? 18.4

Which measured GI50 value corresponds to `C/C(=C\c1cc(C(F)(F)F)n(-c2ccc(N)cc2)n1)[C@@H]1C[C@@H]2O[C@]2(C)CCC[C@H](C)[C@H](O)[C@@H](C)C(=O)C(C)(C)[C@@H](O)CC(=O)O1` ? 5.29

Which measured GI50 value corresponds to `C/C(=C\c1ccn(-c2ccc(N)c(C(F)(F)F)c2)n1)[C@@H]1C[C@@H]2O[C@]2(C)CCC[C@H](C)[C@H](O)[C@@H](C)C(=O)C(C)(C)[C@@H](O)CC(=O)O1` ? 5.74

Which measured GI50 value corresponds to `C/C(=C\c1ccn(-c2ccc(N)cc2)n1)[C@@H]1C[C@@H]2O[C@]2(C)CCC[C@H](C)[C@H](O)[C@@H](C)C(=O)C(C)(C)[C@@H](O)CC(=O)O1` ? 19.6

----------
Exercise: state measured EC50 for each of the compounds provided.
test system: tubulin; experiment: Induction/enhancement of tubulin assembly (Lin, et al., 1996); type: biochemical; conditions: 10 μM tubulin, 0.4M monosodium glutamate, 30 min at room temperature; Table 2; read-out: induction of tubulin assembly (EC50, μM ± SD)

// lookup EC50 | system=tubulin | key= CSc1cc(/C=C(\C)[C@@H]2C[C@@H]3O[C@]3(C)CCC[C@H](C)[C@H](O)[C@@H](C)C(=O)C(C)(C)[C@@H](O)CC(=O)O2)n(CCNC(=O)OC(C)(C)C)n1 [Compound 5] > 40 µM

// lookup EC50 | system=tubulin | key= C/C(=C\c1cc(C(F)(F)F)nn1CCNC(=O)OCC[Si](C)(C)C)[C@@H]1C[C@@H]2O[C@]2(C)CCC[C@H](C)[C@H](O)[C@@H](C)C(=O)C(C)(C)[C@@H](O)CC(=O)O1 [Compound 7] > 40 µM

// lookup EC50 | system=tubulin | key= C/C(=C\c1cc(C(F)(F)F)nn1CCNC(=O)OC(C)(C)C)[C@@H]1C[C@@H]2O[C@]2(C)CCC[C@H](C)[C@H](O)[C@@H](C)C(=O)C(C)(C)[C@@H](O)CC(=O)O1 [Compound 6] > 40 µM
